- target.system: UniProt:P9WMH1
- method: EMSA competition experiments with increasing labeled DNA
- Type: biochemical
- condition.info: DNA 0.8 pmoles to 12.8 pmoles
quantity.kind: mode of inhibition in competition with DNA

{"columns": ["molecule", "experimental.value"],
 "data": [
  ["Cc1ccc(C2=Nc3c(c(C)nn3-c3ccccc3)N=C(C(=O)O)C2)cc1 [Compound I-34]", "competing with DNA"],
  ["O=C(O)C1(Cc2ccc(O)c(O)c2)NCCS1 (stereo not drawn) [Compound I-20]", "competing with DNA"],
  ["O=S(=O)(O)c1ccc(O)c(N=Nc2c(O)ccc3ccccc23)c1 [Compound I-42]", "competing with DNA"],
  ["NC(CC(=O)O)C(=O)OCc1cccc(/N=N/c2ccccc2)c1 (stereo not drawn) [Compound I-21]", "competing with DNA"],
  ["CC(NCc1c(O)ccc2ccc(=O)oc12)C(=O)O (stereo not drawn) [Compound I-39]", "competing with DNA"]
]}

Recorded mode of inhibition in competition with DNA of Nc1ccc(-c2nc3ccccc3s2)cc1S(=O)(=O)O [Compound I-8] , please.
competing with DNA

---

In this section we review reported IC50 values for a set of compounds.
- target.system: UniProt:P9WMH1
- method: biochemical
- condition.info: EMSA, 0.35 µg IdeR, 0.8 picomoles labeled DNA, 200 µM NiSO4, inhibitor 0.4-100 µg/ml; read-out: IC50 (µg/ml) (converted)
Express your answer in µM, writing the number without its unit.

{"columns": ["compound", "quantity.kind", "value.unit", "experimental.value"],
 "data": [
  ["O=C(O)C1(Cc2ccc(O)c(O)c2)NCCS1 (stereo not drawn)", "IC50", "µM", 9.56],
  ["O=S(=O)(O)c1cccc2cccc(N=Nc3c(O)ccc4ccccc34)c12", "IC50", "µM", 57.2],
  ["O=C(NN=c1ccc([N+](=O)[O-])c[nH]1)Nc1ccc(-c2ccccc2)cc1", "IC50", "µM", 83.3],
  ["O=S(=O)(Nc1ccc(Cl)cc1NS(=O)(=O)c1ccccc1)c1ccccc1", "IC50", "µM", 67.2]
]}

API: the following record is the query input.
Looking for the measured IC50 of Cc1ccccc1NC(=O)Nc1cccc(-c2nnc(Cc3ccc4c(c3)OCO4)o2)c1 , can you help?
143

---

- target.system: IdeR (Mycobacterium tuberculosis)
- method: biochemical
- condition.info: EMSA, 0.35 µg IdeR, 0.8 picomoles labeled DNA, 200 µM NiSO4, inhibitor 0.4-100 µg/ml
Note to self: IC50 under 20 µg/mL means Criterion met, ties and anything higher get Criterion not met.

{"columns": ["molecule", "group.label"],
 "data": [
  ["O=S(=O)(O)c1cccc2c(O)c(N=Nc3cccc4ccccc34)ccc12 [IS-55]", "Criterion met"],
  ["O=S(=O)(Nc1c(Cl)c(Cl)c(Cl)c(Cl)c1NS(=O)(=O)c1ccccc1)c1ccccc1 [IS-70]", "Criterion not met"],
  ["Cc1cc(=O)oc2c(CNC(C)C(=O)O)cc(O)cc12 (centres unmarked) [Compound I-38]", "Criterion not met"],
  ["COc1ccccc1N=Nc1cc(S(=O)(=O)O)c2ccccc2c1O [IS-59]", "Criterion met"],
  ["Cc1ccccc1N=Nc1ccc2c(S(=O)(=O)[O-])cccc2c1O.[Na+] [Compound I-90]", "Criterion not met"],
  ["O=S(=O)([O-])c1cc(N=Nc2c(O)ccc3ccccc23)c2c(S(=O)(=O)[O-])cccc2c1.[Na+].[Na+] [IS-9]", "Criterion met"]
]}

Continue with the next molecule.
Does the reported IC50 of Oc1ccccc1C=Nc1ccccc1N=Cc1ccccc1O [IS-47] stay below 20 µg/mL?
Criterion not met

---

- target.system: UniProt P9WMH1
- method: biochemical
- condition.info: EMSA, same values given in µM; read-out: IC50
quantity.kind: log10 of IC50 (log10 of the value in µM)
Note the log scale: values are log10 of IC50 expressed in µM.

Use these answered entries as a reference point.
{"columns": ["molecule", "target.system", "log10 of IC50"],
 "data": [
  ["Cc1ccccc1N=Nc1ccc2c(S(=O)(=O)[O-])cccc2c1O.[Na+] [Compound I-90]", "UniProt P9WMH1", 2.09],
  ["Nc1ccc(N=Nc2ccc(N=Nc3ccc(N=Nc4cc(S(=O)(=O)O)c5ccccc5c4O)c4ccc(S(=O)(=O)O)cc34)c3ccc(S(=O)(=O)O)cc23)cc1 [IS-8]", "UniProt P9WMH1", -0.12],
  ["O=S(=O)(O)c1ccc2c(N=Nc3cccc4ccccc34)c(O)c(S(=O)(=O)O)cc2c1 [IS-45]", "UniProt P9WMH1", 1.60]
]}

Quick one: log10 of IC50 of Cc1ccc(S(=O)(=O)C2CC(=O)N(c3ccc(F)c(Cl)c3)C2=O)cc1 (centres unmarked) [Compound I-108] ?
1.80

I'd like to know its log10 of IC50. The molecule in question is CC(NCc1c(O)ccc2ccc(=O)oc12)C(=O)O (centres unmarked) [Compound I-39]
1.73

Given the molecule O=S(=O)(O)c1cccc2c(O)c(N=Nc3cccc4ccccc34)ccc12 [IS-55] , what is its reported log10 of IC50?
1.21

Any idea what its log10 of IC50 is? The molecule is Nc1ccc(-c2nc3ccccc3s2)cc1S(=O)(=O)O [Compound I-8]
1.87

Entry Nc1ccc(-c2nc3ccccc3s2)cc1 [IS-54, 4-(1,3-benzothiazol-2-yl)aniline] : reported log10 of IC50 = ?
1.70

---

Each entry below carries its reported log10 of IC50.
- target.system: IdeR (Mycobacterium tuberculosis)
- method: biochemical
- condition.info: EMSA, 0.35 µg IdeR, 0.8 picomoles labeled DNA, 200 µM NiSO4, inhibitor 0.4-100 µg/ml; read-out: IC50 (µg/ml) (converted)
Annotation: log10 of IC50, µM basis.

I am curious: what log10 of IC50 value has been reported for O=C1N[C@H]2CCCC[C@@H]2C(=O)N1OS(=O)(=O)c1ccccc1 ?
2.36

Any idea what log10 of IC50 was measured for Cc1cc(=O)oc2c(CNC(C(=O)O)C(C)O)c(O)ccc12 (stereo not drawn) ?
2.43

Given O=C1OC(C=Cc2ccccc2)=NC1=Cc1cccc([N+](=O)[O-])c1 , state its recorded log10 of IC50.
1.64

Would you kindly share the measured log10 of IC50 for NC(CC(=O)O)C(=O)OCc1cccc(/N=N/c2ccccc2)c1 (stereo not drawn) ?
1.22

For O=S(=O)(O)c1ccc(O)c(/N=N/c2ccc(O)cc2O)c1 , what is its reported log10 of IC50?
1.18

Consider the molecule CC(NCc1c(O)ccc2ccc(=O)oc12)C(=O)O (stereo not drawn) and give its measured log10 of IC50.
1.73

What value of measured log10 of IC50 is listed for Nc1ccc(-c2nc3ccccc3s2)cc1 ?
1.69

// log10 of IC50 lookup, key: Nc1ccc(-c2nc3ccccc3s2)cc1S(=O)(=O)O
1.83

Name the recorded log10 of IC50 for COc1ccc(-c2nc3ccccc3s2)cc1S(=O)(=O)O .
1.65

---

- Test system: M. tuberculosis
- method: Resazurin microtiter assay (REMA) whole cell MIC90 in broth culture
- Assay type: cell-based, Mycobacterium tuberculosis
- condition.info: Mycobacterium tuberculosis, MB7H9 medium, Mean ± S.E., three experiments, read-out: MIC90 of compounds against M. tuberculosis
Measured MIC90 accompanies every entry in the list below.
State just the number; it will be interpreted in mg/L.

Example entries begin here.
{"columns": ["compound", "target.system", "experimental.value"],
 "data": [
  ["Nc1ccc(-c2nc3ccccc3s2)cc1 [IS-54, 4-(1,3-benzothiazol-2-yl)aniline]", "M. tuberculosis", 84.8],
  ["COc1ccc(-c2nc3ccccc3s2)cc1S(=O)(=O)O [IS-4]", "M. tuberculosis", 100],
  ["Cc1nn(-c2ccccc2)c2c1N=C(C(=O)O)CC(c1ccccc1)=N2 [Compound I-33]", "M. tuberculosis", 93.3]
]}

Could you share which MIC90 value was measured for Cc1ccc(C2=Nc3c(c(C)nn3-c3ccccc3)N=C(C(=O)O)C2)cc1 [Compound I-34] ?
86.6

GET /values?readout=MIC90&item= Cc1ccc(S(=O)(=O)C2CC(=O)N(c3ccc(F)c(Cl)c3)C2=O)cc1 (stereo not drawn) [Compound I-108]
17.5

---

Recorded measurements of IC50, one per entry
- target.system: IdeR (Mycobacterium tuberculosis, UniProt P9WMH1)
- Sequence (P9WMH1 whole entry, looked up): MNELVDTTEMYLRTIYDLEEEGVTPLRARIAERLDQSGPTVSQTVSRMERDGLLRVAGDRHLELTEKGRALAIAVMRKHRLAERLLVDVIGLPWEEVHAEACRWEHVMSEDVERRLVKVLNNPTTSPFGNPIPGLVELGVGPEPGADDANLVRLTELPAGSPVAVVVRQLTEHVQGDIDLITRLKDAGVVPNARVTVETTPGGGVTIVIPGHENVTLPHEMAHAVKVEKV
- method: biochemical
- condition.info: EMSA, same values given in µM; read-out: IC50
I only need the number, in µM, no unit after it.

Guide cases for IC50, answers given:
{"columns": ["compound", "value.unit", "IC50"],
 "data": [
  ["Oc1ccccc1C=Nc1ccccc1N=Cc1ccccc1O", "µM", 266],
  ["NC(CC(=O)O)C(=O)OCc1cccc(/N=N/c2ccccc2)c1 (stereo not drawn)", "µM", 16.8],
  ["Cc1cc(=O)oc2c(CNC(C(=O)O)C(C)O)c(O)ccc12 (stereo not drawn)", "µM", 275],
  ["O=S(=O)(Nc1c(Cl)c(Cl)c(Cl)c(Cl)c1NS(=O)(=O)c1ccccc1)c1ccccc1", "µM", 88.3]
]}

Can you share its IC50? I mean this compound: O=C(NN1C(=O)C=C(O)C1=Cc1ccccc1)c1ccccc1
170

Which value of IC50 has been reported for O=S(=O)([O-])c1cc(N=Nc2c(O)ccc3ccccc23)c2c(S(=O)(=O)[O-])cccc2c1.[Na+].[Na+] in the records?
27.6

Given the compound O=C(NN=c1ccc([N+](=O)[O-])c[nH]1)Nc1ccc(-c2ccccc2)cc1 , what is its reported IC50?
83.4

Which IC50 value is on record for Cc1nn(-c2ccccc2)c2c1N=C(C(=O)O)CC(c1ccccc1)=N2 ?
63

Would you mind telling me what IC50 value was observed for O=S(=O)(O)c1ccc(O)c(N=Nc2c(O)ccc3ccccc23)c1 ?
2.72

Values compiled from paper PMC5498548.
